Assay: Caspase-3/7 induction in HepG2 cells by small molecules, qHTS assay (AID 1346978); note: nearly all actives have a fitted effect of over 15% in size
Conditions: HepG2 caspase-3/7 activation, Caspase-Glo luminescence, 17 h; series mostly up to 92.4 µM
Inconclusive results are not listed. Active and inactive are the calls of the source. Calls come from the whole dose curve; as a rule, active = well fitted activation curve with a large enough effect in the repeat runs; inconclusive = weak or mixed curves; inactive = flat fitted curve, though single readings scatter.
Answer with one of the outcomes true (1) (active), false (0) (inactive)

>>> class("CC(=O)Nc1ccc(N=Nc2cc(C)ccc2O)cc1")
"false (0)"

Task: What did the test return for Nc1ccc2c(S(=O)(=O)O)cccc2c1S(=O)(=O)O ?
Output: false (0)

---

Biological target: Estrogen receptor (Homo sapiens) (UniProt P03372)
Sequence (P03372 whole entry, looked up): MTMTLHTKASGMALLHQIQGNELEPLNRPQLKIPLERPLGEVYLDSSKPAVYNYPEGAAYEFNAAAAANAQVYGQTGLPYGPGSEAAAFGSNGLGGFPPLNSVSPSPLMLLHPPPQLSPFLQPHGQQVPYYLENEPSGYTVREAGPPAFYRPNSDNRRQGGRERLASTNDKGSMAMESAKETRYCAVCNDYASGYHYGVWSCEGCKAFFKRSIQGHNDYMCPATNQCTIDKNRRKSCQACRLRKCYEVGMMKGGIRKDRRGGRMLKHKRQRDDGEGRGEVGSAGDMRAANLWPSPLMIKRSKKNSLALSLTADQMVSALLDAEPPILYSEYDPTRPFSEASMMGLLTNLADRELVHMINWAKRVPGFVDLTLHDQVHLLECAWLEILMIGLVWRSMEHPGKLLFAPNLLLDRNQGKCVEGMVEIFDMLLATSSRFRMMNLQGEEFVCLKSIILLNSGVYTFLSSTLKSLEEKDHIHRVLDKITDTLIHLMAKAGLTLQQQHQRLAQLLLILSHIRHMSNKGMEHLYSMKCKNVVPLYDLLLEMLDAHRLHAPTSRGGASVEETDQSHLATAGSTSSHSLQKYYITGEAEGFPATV
Experiment: qHTS assay to identify small molecule agonists of the estrogen receptor alpha (ER-alpha) signaling pathway using the BG1 cell line (AID 743079); note: nearly all actives have a fitted effect of over 20% in size
Conditions: BG1Luc4E2 cells, ERE-luciferase agonist, 22 h; series mostly up to 70.3 µM
Records with an inconclusive call do not appear. The source made the active and inactive calls. Calls follow the shape of the dose curve; as a rule, active = well fitted activation curve with a large enough effect in the repeat runs; inconclusive = weak or mixed curves, or effect the other way; inactive = no such curve, though single readings can be large or run the other way.
Answer with one of the outcomes True (active), False (inactive)

Please review the entries below; each comes with its answer.
>>> class("c1ccc2c(c1)OCC(CN1CCCCC1)O2 (stereo not drawn)")
"False"
>>> class("CCOC(=O)COc1ccc2c(=O)cc(-c3ccccc3)oc2c1")
"False"
>>> class("CCN(CC)CCn1c(=O)c(Cc2ccc(OC)cc2)nc2ccccc21")
"False"
>>> class("CN1C(=O)C[C@@H](C(=O)N[C@@H](Cc2cnc[nH]2)C(=O)N2CCC[C@H]2C(N)=O)NC1=O")
"False"
>>> class("CC(=NCc1ccccc1)c1ccccc1O")
"False"
>>> class("CCCOC(=O)c1ccccc1O")
"False"
>>> class("NC[C@H]1O[C@H](O[C@H]2[C@H](O)[C@@H](O[C@H]3O[C@H](CO)[C@@H](O)[C@H](N)[C@H]3O)[C@H](N)C[C@@H]2N)[C@H](N)C[C@@H]1O")
"False"
>>> class("CC(C)C[C@@H](NC(=O)[C@@H](O)[C@H](N)Cc1ccccc1)C(=O)O")
"False"
>>> class("CCOc1ccc(S(=O)(=O)O)c2cccnc12")
"True"
>>> class("O=C1c2ccccc2-c2n[nH]c3cccc1c23")
"False"

Task: What did the test return for NCC1CCC(C(=O)O)CC1 (stereo not drawn) ?
Output: False

Task: What did the test return for NCCO/C=C/[C@H](N)C(=O)O ?
Output: True

Task: What did the test return for CCCCCCCCCCCCCCCC(=O)OC[C@H](COP(=O)([O-])OCC[N+](C)(C)C)OC(=O)CCCCCCCCCCCCCCC ?
Output: False

Task: What did the test return for CC/C=C\C/C=C\C/C=C\C/C=C\C/C=C\C/C=C\CCC(=O)O ?
Output: False

Task: What did the test return for CC/C=C\C/C=C\C/C=C\C/C=C\C/C=C\CCCC(=O)O ?
Output: False

Task: What did the test return for O=P(O)(O)CP(=O)(O)O ?
Output: False

Task: What did the test return for O=C(O)COc1ccccc1/C=N/NC(=O)c1ccncc1 ?
Output: False

Task: What did the test return for CNCCC=C1c2ccccc2CCc2ccccc21 ?
Output: False

Task: What did the test return for N[C@H](C(=O)O)[C@@H]1CC(Cl)=NO1 ?
Output: False

Task: What did the test return for COc1ccc(/C=C/C(=O)Nc2ccccc2C(=O)O)cc1OC ?
Output: False

Task: What did the test return for O=C1CCCCCCCCCCCCCC1 ?
Output: False

Task: What did the test return for CC(=O)OCC(=O)[C@@]1(O)CC[C@H]2[C@@H]3C[C@H](C)C4=CC(=O)C=C[C@]4(C)[C@H]3[C@@H](O)C[C@@]21C ?
Output: True

Task: What did the test return for C=C(Nc1ccc(OCC)cc1)Nc1ccc(OCC)cc1 ?
Output: False
